test: in vivo; conditions: mouse, iv
MEASURED PROPERTY: MTD (mg/kg)
Number in mg/kg, nothing else.

Recorded results for 2 compounds are shown here.
Which value of MTD has been reported for COc1cc(O)c2c(c1)C(=O)c1c(cc3c(c1O)-c1c(cc(C)c(C(=O)N[C@H](C)C(=O)O)c1O)C(O[C@@H]1O[C@H](C)[C@H](O)[C@H](O[C@@H]4OC[C@@H](O)[C@H](O)[C@H]4O)[C@H]1O)C3O)C2=O (stereo partly drawn) in the records? 600

Which value of MTD has been reported for COc1cc(O)c2c(c1)C(=O)c1c(cc3c(c1O)-c1c(cc(C)c(C(=O)N[C@H](C)C(=O)O)c1O)C(O[C@@H]1O[C@H](C)[C@H](N)[C@H](O[C@@H]4OC[C@@H](O)[C@H](O)[C@H]4O)[C@H]1O)C3O)C2=O (stereo partly drawn) in the records? 100

Next:
Which value of MTD has been reported for COc1cc(O)c2c(c1)C(=O)c1c(cc3c(c1O)-c1c(cc(C)c(C(=O)N[C@H](C)C(=O)O)c1O)C(O[C@@H]1O[C@H](C)[C@H](N)[C@H](O)[C@H]1O)C3O)C2=O (stereo partly drawn) in the records? 100

The measurements presented in this section are drawn from patent US5278052A.
